Please respond with reported IC50 for every item in the list.
- Tested on: HT39
- experiment summary: Antiproliferation MTT assay, HT39
- Assay type: cell-based
- measurement setup: Colon Cancer

chemical smiles | IC50
CN(Cc1cn2cc(-c3cnc(N)nc3)nc(N3CCOCC3)c2n1)c1ncc(C(=O)NO)cn1 | 580 nM
Nc1ncc(-c2cn3cc(CN4CCN(c5ncc(C(=O)NO)cn5)CC4)nc3c(N3CCOCC3)n2)cn1 | 1210 nM

Now for another entry.
Input: Look up IC50 for this compound: `Nc1ncc(-c2cn3cc(CNc4ncc(C(=O)NO)cn4)nc3c(N3CCOCC3)n2)cn1`
Output: 34600 nM
